- Target Desc: T7 RNA polymerase (Escherichia phage T7)
- Procedure Summary: IVT capping rate of mRNA by LC-MS after RNase H cleavage
- Format: biochemical
- Measurement Parameters: LC-MS of mRNA transcribed with the cap analog
Result Type: Capping rate
Be sure to follow the number with its unit.

Sample records with Capping rate:
Molecule: COCCOC1C(O)[C@H](n2c[n+](C)c3c(=O)[nH]c(N)nc32)O[C@@H]1/C=C/P(=O)(O)OP(=O)(O)OP(=O)(O)OC[C@H]1O[C@@H](n2cnc3c(N)ncnc32)C(OC)C1OP(=O)(O)OC[C@H]1O[C@@H](n2cnc3c(=O)[nH]c(N)nc32)C(O)C1O (stereo partly shown) [Compound 10]
Capping rate: 96.4%
//
Molecule: COC1[C@@H](OP(=O)(O)/C=C/[C@H]2O[C@@H](n3cnc4c(=O)[nH]c(N)nc43)C(O)[C@H]2O)[C@@H](/C=C\P(=O)(O)OP(=O)(O)OP(=O)(O)/C=C\[C@H]2O[C@@H](n3c[n+](C)c4c(=O)[nH]c(N)nc43)[C@@H](O)C2O)O[C@H]1n1cnc2c(N)ncnc21 (stereo partly shown) [Example 7]
Capping rate: 82.6%
//
Molecule: COCC1C(O)[C@H](n2c[n+](C)c3c(=O)[nH]c(N)nc32)O[C@@H]1/C=C/P(=O)(O)OP(=O)(O)OP(=O)(O)OC[C@H]1O[C@@H](n2cnc3c(N)ncnc32)C(OC)C1OP(=O)(O)OC[C@H]1O[C@@H](n2cnc3c(=O)[nH]c(N)nc32)C(O)C1O (stereo partly shown) [Compound 11]
Capping rate: 95.7%
//
Molecule: COC1[C@@H](OP(=O)(O)/C=C/[C@H]2O[C@@H](n3cnc4c(=O)[nH]c(N)nc43)C(O)[C@H]2O)[C@@H](/C=C\P(=O)(O)OP(=O)(O)OP(=O)(O)OC[C@H]2O[C@@H](n3c[n+](C)c4c(=O)[nH]c(N)nc43)[C@@H](O)C2O)O[C@H]1n1cnc2c(N)ncnc21 (stereo partly shown) [Example 6]
Capping rate: 87.3%
//
Molecule: COC1C(OP(=O)(O)OC[C@H]2O[C@@H](n3cnc4c(=O)[nH]c(N)nc43)C(O)C2O)[C@@H](COP(=O)(O)OP(=O)(O)OP(=O)(O)/C=C/[C@H]2O[C@@H](n3c[n+](C)c4c(=O)[nH]c(N)nc43)CC2OC)O[C@H]1n1cnc2c(N)ncnc21 (stereo partly shown) [Compound 13]
Capping rate: 95.4%
//
Molecule: COC1C(OP(=O)(O)OC[C@H]2O[C@@H](n3cnc4c(=O)[nH]c(N)nc43)C(O)C2O)[C@@H](COP(=O)(O)OP(=O)(O)OP(=O)(O)/C=C/[C@H]2O[C@@H](n3c[n+](C)c4c(=O)[nH]c(N)nc43)C(F)C2O)O[C@H]1n1cnc2c(N)ncnc21 (stereo partly shown) [Compound 16]
Capping rate: 95.8%

Could you share which Capping rate value was measured for COC1C(OP(=O)(O)OC[C@H]2O[C@@H](n3cnc4c(=O)[nH]c(N)nc43)C(O)C2O)[C@@H](/C=C\P(=O)(O)OP(=O)(O)OP(=O)(O)OC[C@H]2O[C@@H](n3c[n+](C)c4c(=O)[nH]c(N)nc43)C(O)C2CNC(C)=O)O[C@H]1n1cnc2c(N)ncnc21 (stereo partly shown) [Compound 25] ?
96.1%

---

- Target Desc: T7 RNA polymerase (Escherichia phage T7)
- Procedure Summary: mRNA in-vitro transcription yield with cap analog (T7 IVT, Nanodrop One quantification)
- Assay type: biochemical
- Measurement Parameters: mRNA from 20 μL IVT system, 1 μl 100 mM cap analog, 1 μg template, 37° C. 2 h
- Procedure: In-vitro synthesis of mRNA cap analogs modified with vinylphosphonic acid: Firstly, a plasmid was linearized with NotI and digested at 4° C. overnight. […] Note: During the experiment, the volume of the materials required for the system was calculated firstly, and then sample loading was performed. […] The purified mRNA was dissolved in sterile enzyme-free water, and then quantitative detection was performed by using Nanodrop One.
Kindly supply the reported Yield values for the records listed here.
Numbers only, in µg.

Compound: COC1[C@@H](OP(=O)(O)/C=C/[C@H]2O[C@@H](n3cnc4c(=O)[nH]c(N)nc43)C(O)[C@H]2O)[C@@H](/C=C\P(=O)(O)OP(=O)(O)OP(=O)(O)OC[C@H]2O[C@@H](n3c[n+](C)c4c(=O)[nH]c(N)nc43)[C@@H](O)C2O)O[C@H]1n1cnc2c(N)ncnc21 (some centres unmarked)
Yield / µg: 96

Please turn your attention to the following entry.
Could you share which Yield value was measured for COC1C(OP(=O)(O)OC[C@H]2O[C@@H](n3ccc(=O)[nH]c3=O)C(O)C2O)[C@@H](COP(=O)(O)OP(=O)(O)OP(=O)(O)/C=C/[C@H]2O[C@@H](n3c[n+](C)c4c(=O)[nH]c(N)nc43)C(O)C2CNC(C)=O)O[C@H]1n1cnc2c(N)ncnc21 (some centres unmarked) ?
122

---

- Target Desc: T7 RNA polymerase (Escherichia phage T7, UniProt P00573)
- Sequence (P00573 whole entry): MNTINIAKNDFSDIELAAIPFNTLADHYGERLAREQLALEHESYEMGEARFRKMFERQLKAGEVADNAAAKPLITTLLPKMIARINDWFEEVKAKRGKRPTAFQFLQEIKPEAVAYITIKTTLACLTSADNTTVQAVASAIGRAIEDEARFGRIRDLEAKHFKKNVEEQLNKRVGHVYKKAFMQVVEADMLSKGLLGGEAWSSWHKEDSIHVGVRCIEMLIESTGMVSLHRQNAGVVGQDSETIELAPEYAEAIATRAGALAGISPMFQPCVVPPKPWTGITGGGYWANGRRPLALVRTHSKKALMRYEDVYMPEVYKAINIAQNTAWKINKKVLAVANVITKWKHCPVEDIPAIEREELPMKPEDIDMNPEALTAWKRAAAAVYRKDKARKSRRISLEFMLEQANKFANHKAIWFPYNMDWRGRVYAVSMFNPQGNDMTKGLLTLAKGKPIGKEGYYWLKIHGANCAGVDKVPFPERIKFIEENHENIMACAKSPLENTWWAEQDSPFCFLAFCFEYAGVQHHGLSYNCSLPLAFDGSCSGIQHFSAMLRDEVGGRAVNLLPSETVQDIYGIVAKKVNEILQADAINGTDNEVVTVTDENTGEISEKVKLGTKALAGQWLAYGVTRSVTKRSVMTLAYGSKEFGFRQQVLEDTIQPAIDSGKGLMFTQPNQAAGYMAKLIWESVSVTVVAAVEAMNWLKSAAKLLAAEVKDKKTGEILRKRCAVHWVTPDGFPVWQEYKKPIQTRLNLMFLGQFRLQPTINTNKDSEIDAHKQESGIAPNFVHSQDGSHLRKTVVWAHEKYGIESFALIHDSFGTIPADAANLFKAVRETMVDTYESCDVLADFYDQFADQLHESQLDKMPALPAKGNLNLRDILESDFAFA
- Procedure Summary: mRNA in-vitro transcription yield with cap analog (T7 IVT, Nanodrop One quantification)
- Format: biochemical
- Measurement Parameters: mRNA from 20 μL IVT system, 1 μl 100 mM cap analog, 1 μg template, 37° C. 2 h
Result Type: Yield (µg)
One number for each entry, in µg.

Sample records with Yield:
Compound: COC1[C@@H](OP(=O)(O)OC[C@H]2O[C@@H](n3cnc4c(=O)[nH]c(N)nc43)C(O)[C@H]2O)[C@@H](/C=C\P(=O)(O)OP(=O)(O)OP(=O)(O)/C=C\[C@H]2O[C@@H](n3c[n+](C)c4c(=O)[nH]c(N)nc43)[C@@H](O)C2O)O[C@H]1n1cnc2c(N)ncnc21 (some centres unmarked) [Example 5]
Target Desc: T7 RNA polymerase (Escherichia phage T7, UniProt P00573)
Yield [µg]: 102

Compound: COCCOC1C(O)[C@H](n2c[n+](C)c3c(=O)[nH]c(N)nc32)O[C@@H]1/C=C/P(=O)(O)OP(=O)(O)OP(=O)(O)OC[C@H]1O[C@@H](n2cnc3c(N)ncnc32)C(OC)C1OP(=O)(O)OC[C@H]1O[C@@H](n2cnc3c(=O)[nH]c(N)nc32)C(O)C1O (some centres unmarked) [Compound 10]
Target Desc: T7 RNA polymerase (Escherichia phage T7, UniProt P00573)
Yield [µg]: 124

Compound: COC1[C@@H](OP(=O)(O)/C=C/[C@H]2O[C@@H](n3cnc4c(=O)[nH]c(N)nc43)C(O)[C@H]2O)[C@@H](/C=C\P(=O)(O)OP(=O)(O)OP(=O)(O)/C=C\[C@H]2O[C@@H](n3c[n+](C)c4c(=O)[nH]c(N)nc43)[C@@H](O)C2O)O[C@H]1n1cnc2c(N)ncnc21 (some centres unmarked) [Example 7]
Target Desc: T7 RNA polymerase (Escherichia phage T7, UniProt P00573)
Yield [µg]: 85

Compound: COC1C(OP(=O)(O)OC[C@H]2O[C@@H](n3cnc4c(=O)[nH]c(N)nc43)C(O)C2O)[C@@H](COP(=O)(O)OP(=O)(O)OP(=O)(O)/C=C/[C@H]2O[C@@H](n3c[n+](C)c4c(=O)[nH]c(N)nc43)C(O)C2CNC(C)=O)O[C@H]1n1cnc2c(N)ncnc21 (some centres unmarked) [Compound 12]
Target Desc: T7 RNA polymerase (Escherichia phage T7, UniProt P00573)
Yield [µg]: 123

Please turn your attention to the following entry.
Lab note: need Yield with T7 RNA polymerase (Escherichia phage T7, UniProt P00573) for entry COC1C(OP(=O)(O)OC[C@H]2O[C@@H](n3cnc4c(=O)[nH]c(N)nc43)C(O)C2O)[C@@H](COP(=O)(O)OP(=O)(O)OP(=O)(O)/C=C/[C@H]2O[C@@H](n3c[n+](C)c4c(=O)[nH]c(N)nc43)C(O)C2O)O[C@H]1n1cnc2c(N)ncnc21 (some centres unmarked) [Example 2] , please look it up.
125

---

Kindly supply the reported Yield values for the records listed here.
- Target Desc: T7 RNA polymerase (Escherichia phage T7, UniProt P00573)
- Procedure Summary: mRNA in-vitro transcription yield with cap analog (T7 IVT, Nanodrop One quantification)
- Format: biochemical
- Measurement Parameters: mRNA from 20 μL IVT system, 1 μl 100 mM cap analog, 1 μg template, 37° C. 2 h
Answers are plain numbers, in µg.

Compound: COC1C(OP(=O)(O)OC[C@H]2O[C@@H](n3cnc4c(=O)[nH]c(N)nc43)C(O)C2O)[C@@H](COP(=O)(O)OP(=O)(O)OP(=O)(O)/C=C/[C@H]2O[C@@H](n3c[n+](C)c4c(=O)[nH]c(N)nc43)C(O)C2CN(C)C(C)=O)O[C@H]1n1cnc2c(N)ncnc21 (stereo partly shown) [Compound 31]
Result Number: 115
--
Compound: COC1C(OP(=O)(O)OC[C@H]2O[C@@H](n3cnc4c(=O)[nH]c(N)nc43)C(O)C2O)[C@@H](/C=C/P(=O)(O)OP(=O)(O)OP(=O)(O)OC[C@H]2O[C@@H](n3c[n+](C)c4c(=O)[nH]c(N)nc43)C(O)C2O)O[C@H]1n1cnc2c(N)ncnc21 (stereo partly shown) [Example 3]
Result Number: 122
--
Compound: CCCC(=O)NCC1C(O)[C@H](n2c[n+](C)c3c(=O)[nH]c(N)nc32)O[C@@H]1/C=C/P(=O)(O)OP(=O)(O)OP(=O)(O)OC[C@H]1O[C@@H](n2cnc3c(N)ncnc32)C(OC)C1OP(=O)(O)OC[C@H]1O[C@@H](n2cnc3c(=O)[nH]c(N)nc32)C(O)C1O (stereo partly shown) [Compound 34]
Result Number: 117

Please turn your attention to the following entry.
Could you share which Yield value was measured for COC1C(OP(=O)(O)OC[C@H]2O[C@@H](n3cnc4c(=O)[nH]c(N)nc43)C(O)C2O)[C@@H](/C=C\P(=O)(O)OP(=O)(O)OP(=O)(O)OC[C@H]2O[C@@H](n3c[n+](C)c4c(=O)[nH]c(N)nc43)C(O)C2CNC(C)=O)O[C@H]1n1cnc2c(N)ncnc21 (stereo partly shown) [Compound 25] ?
120
